Assay Method Text: recombinant barcode read abundance after kanamycin selection (control-corrected) (log10(CPM+1)); higher = more efficient recombination; sequences stand for … in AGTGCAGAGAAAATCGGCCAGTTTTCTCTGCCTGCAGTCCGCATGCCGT…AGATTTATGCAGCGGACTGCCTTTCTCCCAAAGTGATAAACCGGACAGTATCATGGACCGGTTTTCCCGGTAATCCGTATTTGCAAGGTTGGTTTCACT; site = the 11-nt target
Property: recombinant barcode read abundance (log10)
One number for each entry.

> print(dat)
                              sequence.code  endpoint.value
1  TACCAGTCTTGGGTTCTAACCTGTTGCTT (site TACCAGTCTAA)            1.74

Parameters: items (list). Returns: recombinant barcode read abundance (log10) for each item.
1. ATCCCATCTTGGGTTCTAACCTGTTGCCT (site ATTCCATCTAG)
2. GCCACGCCTTGGGTTCTAACCTGTTGCAG (site GCCACGCCTCT)

[0.0512, 0.115]

====

Assay Method Text: recombinant UMI read abundance after kanamycin selection (control-corrected) (log10(CPM+1)); higher = more efficient recombination; extreme values may be limits of the assay; sequences stand for … in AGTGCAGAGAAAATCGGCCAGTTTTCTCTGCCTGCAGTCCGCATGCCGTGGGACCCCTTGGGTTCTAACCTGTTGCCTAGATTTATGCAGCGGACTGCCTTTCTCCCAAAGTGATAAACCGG…AGGTTGGTTTCACT; site = the 11-nt donor
We use 0.7 as the dividing line for recombinant UMI read abundance (log10): on or above the line is 1, below is -1.

Some entries whose results are on file:
> print(dat)
                               sequence.code  category
 1  TACCCAGCATGGACCGGTTTTCCCGGTAATCCGTATTTGCT (site TACCCAGCTAG)        -1
 2  CGCTTCTCATGGACCGGTTTTCCCGGTAATCCGTATTTGGG (site CACTTCTCTCC)        -1
 3  TAGCAAGCATGGACCGGTTTTCCCGGTAATCCGTATTTGAA (site TAGCAAGCTTT)         1
 4  GTAAGGCCATGGACCGGTTTTCCCGGTAATCCGTATTTGAC (site TTAAGGCCTGT)        -1
 5  CAAATCACATGGACCGGTTTTCCCGGTAATCCGTATTTGGG (site CAATTCACTCC)        -1
 6  GTGGAGGCATGGACCGGTTTTCCCGGTAATCCGTATTTGTG (site GTGGAGGCTCA)         1
 7  TACTTGACATGGACCGGTTTTCCCGGTAATCCGTATTTGCT (site TACTGGACTAG)        -1
 8  CGCCGTCCATGGACCGGTTTTCCCGGTAATCCGTATTTGCT (site CGCCGTCCTAG)        -1
 9  TCTTACTCATGGACCGGTTTTCCCGGTAATCCGTATTTGCA (site TCCTACTCTTG)         1
10  TAGGAAGCATGGACCGGTTTTCCCGGTAATCCGTATTTGCG (site TAGGAACCTCG)        -1

Given CCGTCGACATGGACCGGTTTTCCCGGTAATCCGTATTTGGG (site CTGTCGACTCC) , state whether its recombinant UMI read abundance (log10) is at least 0.7. -1

What do you have for ATAAGCACATGGACCGGTTTTCCCGGTAATCCGTATTTGAT (site ATAAGCACTAT) ? 1

What do you have for GTTGTTCCATGGACCGGTTTTCCCGGTAATCCGTATTTGGT (site GTTGTTCCTAT) ? -1

What do you have for CTAGTCTCATGGACCGGTTTTCCCGGTAATCCGTATTTGAC (site CTAGTCTCTGT) ? 1

What do you have for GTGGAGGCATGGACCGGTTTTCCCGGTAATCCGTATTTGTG (site GTGGAAGCTCA) ? 1

What do you have for CCGTTATCATGGACCGGTTTTCCCGGTAATCCGTATTTGTG (site CCGTTATCTCA) ? -1

What do you have for CTGGAAACATGGACCGGTTTTCCCGGTAATCCGTATTTGAA (site CTGGAAACTTT) ? 1

What do you have for CCCTTCCCATGGACCGGTTTTCCCGGTAATCCGTATTTGGG (site CCCTTCTCTCC) ? -1

What do you have for CAGGCAACATGGACCGGTTTTCCCGGTAATCCGTATTTGTG (site CAGGCAACTCA) ? 1

What do you have for ACGCGCACATGGACCGGTTTTCCCGGTAATCCGTATTTGCG (site ACGCGCACTCG) ? 1

What do you have for TTCTAAACATGGACCGGTTTTCCCGGTAATCCGTATTTGCA (site TTCTAAACTTG) ? 1

What do you have for GTAGGCTCATGGACCGGTTTTCCCGGTAATCCGTATTTGTG (site GTAGGCTCTCA) ? 1

What do you have for CGGATGGCATGGACCGGTTTTCCCGGTAATCCGTATTTGAA (site CGGATGGCTTT) ? 1

What do you have for CTCCCCACATGGACCGGTTTTCCCGGTAATCCGTATTTGAG (site CTCCCCACTCT) ? 1

What do you have for ATCCATGCATGGACCGGTTTTCCCGGTAATCCGTATTTGAG (site ATCCATGCTCT) ? 1

What do you have for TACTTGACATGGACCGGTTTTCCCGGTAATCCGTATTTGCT (site CACTTGACTAG) ? -1

What do you have for GTTGGGCCATGGACCGGTTTTCCCGGTAATCCGTATTTGAT (site GTTGGGCCTAT) ? -1

What do you have for GCTACAGCATGGACCGGTTTTCCCGGTAATCCGTATTTGCC (site GCTACAGCTGG) ? 1
